The reported numbers originate from PubChem BioAssay (EPA / NIEHS).

Molecular target: Muscarinic acetylcholine receptor M3 (Homo sapiens) (UniProt P20309)
Sequence (P20309 whole entry, looked up): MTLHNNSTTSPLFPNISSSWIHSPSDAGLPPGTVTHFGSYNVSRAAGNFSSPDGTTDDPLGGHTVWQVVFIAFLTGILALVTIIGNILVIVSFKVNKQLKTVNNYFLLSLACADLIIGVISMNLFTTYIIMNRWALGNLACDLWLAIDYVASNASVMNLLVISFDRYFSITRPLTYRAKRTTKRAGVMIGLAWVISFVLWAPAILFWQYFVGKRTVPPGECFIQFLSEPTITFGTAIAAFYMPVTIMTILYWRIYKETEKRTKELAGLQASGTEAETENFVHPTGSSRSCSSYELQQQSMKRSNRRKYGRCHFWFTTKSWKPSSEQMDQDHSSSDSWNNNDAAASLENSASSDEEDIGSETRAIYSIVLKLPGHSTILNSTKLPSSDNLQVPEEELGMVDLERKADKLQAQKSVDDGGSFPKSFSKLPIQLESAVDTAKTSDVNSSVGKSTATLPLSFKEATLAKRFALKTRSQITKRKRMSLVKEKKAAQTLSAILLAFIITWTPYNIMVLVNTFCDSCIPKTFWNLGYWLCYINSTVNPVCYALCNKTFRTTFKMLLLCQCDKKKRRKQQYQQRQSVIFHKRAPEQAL
Assay: NVS_GPCR_hM3: NovaScreen (NVS) G Protein-Coupled Receptor Assay for human Muscarinic, M3 Receptor (AID 2283272)
Records with an inconclusive call do not appear. Active and inactive are the calls of the source. How the source made its calls: active means hit-call score of the fitted dose curve at least 0.9, where 1 is the maximum; inconclusive means response in the unintended direction; inactive means score below 0.9.
Response enum: active, inactive

Consider the following illustrative entries.
Structure Notation	Tgt	Group Label
CCCCCCCCCCCCCCCCOS(=O)(=O)O	Muscarinic acetylcholine receptor M3 (Homo sapiens) (UniProt P20309)	active
COc1cc(C(C)C)c2c(c1)S(=O)(=O)N(COc1cc(=O)n3cccc(OCCN4CCCCC4)c3n1)C2=O	Muscarinic acetylcholine receptor M3 (Homo sapiens) (UniProt P20309)	active
Cc1nccn1-c1ccc(Sc2cccc(C3(C(N)=O)CCOCC3)c2)cc1	Muscarinic acetylcholine receptor M3 (Homo sapiens) (UniProt P20309)	inactive
O=S(=O)(O)c1ccc(N=Nc2c(O)ccc3cc(S(=O)(=O)O)ccc23)cc1	Muscarinic acetylcholine receptor M3 (Homo sapiens) (UniProt P20309)	inactive

Moving on to the next compound.
Record lookup: outcome of this test for "c1ccc(C(O[C@@H]2CCCN(CCc3ccc4c(c3)OCO4)C2)c2ccccc2)cc1" ?
active

###

Read-out: Phosphatase and tensin (PTEN), PTEN (gene 5728)
Assay: LTEA_HepaRG_PTEN: Life Technologies and Expression Analysis (LTEA) Assay for Phosphatase and tensin (PTEN) using HepaRG (AID 2283523)
Conditions: mRNA level, 48 h; actives raise or lower the signal
Calls of active or inactive are those of the source. Rule for the calls: active = hit-call score of the fitted dose curve at least 0.9, where 1 is the maximum; inactive = score below 0.9.
Metric Name: outcome

Structure Notation	Metric Name	Reading
COc1cc2c(c(OC)c1OC)-c1ccc(OC)c(=O)cc1[C@@H](NC(C)=O)CC2	outcome	inactive
c1ccc2c(c1)-c1cccc3c1c-2cc1ccccc13	outcome	inactive
CNC(C)=O	outcome	inactive

###

Read-out: adenosine kinase (ADK) gene, ADK (gene 132)
Assay: LTEA_HepaRG_ADK: Life Technologies and Expression Analysis (LTEA) Assay for adenosine kinase (ADK) gene using HepaRG (AID 2283471)
Details: mRNA level, 48 h; actives raise or lower the signal
Activity calls are given as the source filed them. Rule for the calls: active = hit-call score of the fitted dose curve at least 0.9, where 1 is the maximum; inactive = score below 0.9.
Response enum: Y (active), N (inactive)

Structure Notation	Group Label
OCC(CO)(CO)CO	N
NC(=O)N(O)[C@@H]1COc2cc(OCc3ccccc3)ccc21	N
O=C(O)[C@H](O)[C@@H](O)C(=O)O	N

Record lookup: outcome of this test for "Cc1ccc(S(=O)(=O)NC(=O)NN2CCCCCC2)cc1" ?
N

Record lookup: outcome of this test for "OC(Cn1cncn1)(Cn1cncn1)c1ccc(F)cc1F" ?
N

Record lookup: outcome of this test for "CCCCN1C(=O)[C@@H]([C@H](O)C2CCCCC2)NC(=O)C12CCN(Cc1ccc(Oc3ccc(C(=O)O)cc3)cc1)CC2" ?
Y

Record lookup: outcome of this test for "CCn1nc(C)c2c1C(=O)NCC(c1ccc(O)cc1)=N2" ?
N

Record lookup: outcome of this test for "Cn1c(=O)c2[nH]cnc2n(C)c1=O" ?
N

Record lookup: outcome of this test for "O=S1(=O)CCCO1" ?
N

Record lookup: outcome of this test for "CCN(CC)C(=S)SSC(=S)N(CC)CC" ?
N

###

Read-out: ABC Transporter (ABCB1), ABCB1 (gene 5243)
Assay: LTEA_HepaRG_ABCB1: Life Technologies and Expression Analysis (LTEA) Assay for ABC Transporter (ABCB1) using HepaRG (AID 2283460)
Settings: mRNA level, 48 h; actives raise or lower the signal
The source made the active and inactive calls. How the source made its calls: active means hit-call score of the fitted dose curve at least 0.9, where 1 is the maximum; inactive means score below 0.9.
Response enum: active, inactive

Structure Notation	Group Label
CCn1nc(C)c2c1C(=O)NCC(c1ccc(O)cc1)=N2	inactive
c1ccc2c(c1)-c1cccc3c1c-2cc1ccccc13	active
NC(=O)N(O)[C@@H]1COc2cc(OCc3ccccc3)ccc21	inactive

Moving on to the next molecule.
Record lookup: outcome of this test for "CNC(C)=O" ?
inactive

###

Read-out: UDP glucuronosyltransferase (UGT1A6), UGT1A6 (gene 54578)
Assay: LTEA_HepaRG_UGT1A6: Life Technologies and Expression Analysis (LTEA) Assay for UDP glucuronosyltransferase (UGT1A6) using HepaRG (AID 2283539)
Details: mRNA level, 48 h; actives raise or lower the signal
The source made the active and inactive calls. The calls were made as follows: active = hit-call score of the fitted dose curve at least 0.9, where 1 is the maximum; inactive = score below 0.9.
Response enum: label 1 = active, label 0 = inactive

Consider the following illustrative entries.
Structure Notation	Group Label
CCCCCCOC(=O)CC(CC(=O)OCCCCCC)(OC(=O)CCC)C(=O)OCCCCCC	label 0
CC(C)c1nnc2ccc(-c3ocnc3-c3cc(F)ccc3F)cn12	label 1
NC(=O)NN=Cc1ccc([N+](=O)[O-])o1	label 0
Cn1cc[nH]c1=S	label 0
CCCCOC(=O)c1ccccc1	label 0

Record lookup: outcome of this test for "C=CN1CCCC1=O" ?
label 0

Record lookup: outcome of this test for "O=C(O)[C@H](O)[C@@H](O)C(=O)O" ?
label 0

Record lookup: outcome of this test for "Cc1nccn1-c1ccc(Sc2cccc(C3(C(N)=O)CCOCC3)c2)cc1" ?
label 1

Record lookup: outcome of this test for "Cc1nc(-c2ccccn2)ncc1C(=O)Nn1cc(C)c2cc(F)ccc21" ?
label 1

Record lookup: outcome of this test for "NC(=O)N(O)[C@@H]1COc2cc(OCc3ccccc3)ccc21" ?
label 0

Record lookup: outcome of this test for "CCCCCCCCCCCCCCO" ?
label 0

###

Read-out: Cytochrome P450 (CYP2B6), CYP2B6 (gene 1555)
Experiment: LTEA_HepaRG_CYP2B6: Life Technologies and Expression Analysis (LTEA) Assay for Cytochrome P450 (CYP2B6) using HepaRG (AID 2283481)
Conditions: mRNA level, 48 h; actives raise or lower the signal
Calls of active or inactive are those of the source. How the source made its calls: active means hit-call score of the fitted dose curve at least 0.9, where 1 is the maximum; inactive means score below 0.9.
Response enum: YES for active, NO for inactive

Consider the following illustrative entries.
Structure Notation	Group Label
c1ccc2cc3ccccc3cc2c1	YES
CCCC(CCC)C(=O)O	NO
OC[C@H]1O[C@@H]2O[C@H]3[C@H](O)[C@@H](O)[C@@H](O[C@H]4[C@H](O)[C@@H](O)[C@@H](O[C@H]5[C@H](O)[C@@H](O)[C@@H](O[C@H]6[C@H](O)[C@@H](O)[C@@H](O[C@H]7[C@H](O)[C@@H](O)[C@@H](O[C@H]1[C@H](O)[C@H]2O)O[C@@H]7CO)O[C@@H]6CO)O[C@@H]5CO)O[C@@H]4CO)O[C@@H]3CO	NO

Record lookup: outcome of this test for "OCC(CO)(CO)CO" ?
NO

###

Read-out: Early growth response protein 1 (EGR1) transcription factor, EGR1 (gene 1958)
Assay: LTEA_HepaRG_EGR1: Life Technologies and Expression Analysis (LTEA) Assay for Early growth response protein 1 (EGR1) transcription factor using HepaRG (AID 2283490)
Details: mRNA level, 48 h; actives raise or lower the signal
The source made the active and inactive calls. The calls were made as follows: active = hit-call score of the fitted dose curve at least 0.9, where 1 is the maximum; inactive = score below 0.9.
Response enum: 1 (yes) = active, 0 (no) = inactive

Consider the following illustrative entries.
Structure Notation	Group Label
CCCOc1ccc(S(=O)(=O)N2CCN(CC)CC2)cc1-c1nc2c(CC)n(Cc3ccccn3)nc2c(=O)[nH]1	0 (no)
CCCCOC(=O)c1ccccc1	0 (no)
COc1cc(C(C)C)c2c(c1)S(=O)(=O)N(COc1cc(=O)n3cccc(OCCN4CCCCC4)c3n1)C2=O	1 (yes)
Cn1cc[nH]c1=S	0 (no)

Record lookup: outcome of this test for "CCCCCOC(C)=O" ?
0 (no)

Record lookup: outcome of this test for "CC(C)C(=O)Nc1ccc([N+](=O)[O-])c(C(F)(F)F)c1" ?
1 (yes)

Record lookup: outcome of this test for "c1ccc2cc3ccccc3cc2c1" ?
0 (no)

###

Test: CCTE_Mundy_HCI_hNP1_CellTiter: CCTE's Cell Titer-Glo 2 Assay in human neuroprogenitor cells for Viability, Mundy Lab (AID 2284241)
Inconclusive results are not listed. Active and inactive are the calls of the source. Rule for the calls: active = hit-call score of the fitted dose curve at least 0.9, where 1 is the maximum; inconclusive = response in the unintended direction; inactive = score below 0.9.
Response enum: True = active, False = inactive

Structure Notation	Group Label
Cn1cc[nH]c1=S	False

Record lookup: outcome of this test for "COc1cc2c(c(OC)c1OC)-c1ccc(OC)c(=O)cc1[C@@H](NC(C)=O)CC2" ?
True

Record lookup: outcome of this test for "NNC(=O)c1ccncc1" ?
False

Record lookup: outcome of this test for "C[C@]12C=CC(=O)C=C1CC[C@H]1[C@@H]3C[C@@H](O)[C@](O)(C(=O)CO)[C@@]3(C)C[C@H](O)[C@@]12F" ?
True

Record lookup: outcome of this test for "FC(F)=C(F)C(F)(F)C(F)(F)C(F)(F)C(F)(F)C(F)(F)C(F)(F)F" ?
False

Record lookup: outcome of this test for "CCCC(CCC)C(=O)O" ?
False

###

Assay: APR_HepG2_MitoticArrest_72hr: Apredica 72-hour HepG2 Assay for Mitotic Arrest (AID 2282918)
Details: high-content imaging, actives raise or lower the signal
Calls of active or inactive are those of the source. Rule for the calls: active = hit-call score of the fitted dose curve at least 0.9, where 1 is the maximum; inactive = score below 0.9.
Response enum: true for active, false for inactive

Molecule	Group Label
c1ccc(C(O[C@@H]2CCCN(CCc3ccc4c(c3)OCO4)C2)c2ccccc2)cc1	true
CCCCCCCCN(C)C	false
CC(=O)c1ccccc1	false

Record lookup: outcome of this test for "CCc1ccc(O)c(C(C)(C)C)c1" ?
true

Record lookup: outcome of this test for "c1ccc2ncccc2c1" ?
false
